# Target System: biotinylated CD59 (Homo sapiens)
# Construct: Recombinant soluble human CD59 with an additional C-terminal cysteine residue
# Sequence (P13987 26-102 limits assumed): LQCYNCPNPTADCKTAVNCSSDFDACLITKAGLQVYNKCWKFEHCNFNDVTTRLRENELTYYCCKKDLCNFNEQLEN
# Assay Overview: mRNA-display cyclic peptide screen against CD59-biotin, NGS abundance after 6th selection round
# Reported Conditions: counts normalised by total counts of sample Seq II; percentage of the pool, sheet R6
Recorded Endpoint: Percentage Seq II (%)
Answers are plain numbers, in %.

For orientation, consider the following solved cases.
Macromolecule Sequence | Target System | Percentage Seq II / %
FVTGNRDHTRG | biotinylated CD59 (Homo sapiens) | 7.094
SFAKRVAAQGGC | biotinylated CD59 (Homo sapiens) | 0.021
FVRGDLHSVLG | biotinylated CD59 (Homo sapiens) | 0.044
SAWGNRQIQYY | biotinylated CD59 (Homo sapiens) | 7.046
LYGNRDYSFYRP | biotinylated CD59 (Homo sapiens) | 0.169

Record Percentage Seq II per entry; entries follow.
1. FIRGNSTSVLF
2. FVAGNRDHTRG
3. SAWGNWQIQYY
4. YLFGDRFSVRG
5. LCYVKGSKDFT
6. CFTGRLSLDSI

## Output
1.838
0.016
0.030
0.100
0.019
0.039

Record Percentage Seq II per entry; entries follow.
1. NTAWGNVAVAYF
2. CFKKRLDTVST
3. WRDRFDRCVL
4. LCYVKGSKNFT
5. SWTWGNRSSARG

## Output
1: 0.030; 2: 0.016; 3: 0.032; 4: 0.095; 5: 0.035

----------
# Target System: biotinylated CD59 (Homo sapiens)
# Construct: Recombinant soluble human CD59 with an additional C-terminal cysteine residue
# Sequence (P13987 26-102 limits assumed): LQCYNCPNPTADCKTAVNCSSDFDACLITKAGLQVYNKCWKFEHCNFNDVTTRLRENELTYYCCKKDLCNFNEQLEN
# Assay Overview: mRNA-display cyclic peptide screen against CD59-biotin, NGS abundance after 6th selection round
# Reported Conditions: average of Seq I and Seq II, sheet R6
Recorded Endpoint: Percentage of the pool, averaged across the two sequencing samples (%)
One number for each entry, in %.

Macromolecule Sequence | Measured Number
FVRGDLYSILG | 0.013

Record Percentage of the pool, averaged across the two sequencing samples per entry; entries follow.
1. CCGGRTFIYAWS
2. CFRSRAVSNGT
3. CYGDRTFIYAWS

## Output
1. 0.010
2. 0.016
3. 0.018

Record Percentage of the pool, averaged across the two sequencing samples per entry; entries follow.
1. GYLNECHALYTR
2. CSSLRARGWI
3. WRDRFDQCIL
4. CSAGRLTIDAV

## Output
0.018
0.012
0.013
0.011

----------
Give measured Percentage of the pool, averaged across the two sequencing samples for each item. Keep answers brief.
# Target System: biotinylated CD59 (Homo sapiens)
# Construct: Recombinant soluble human CD59 with an additional C-terminal cysteine residue
# Sequence (P13987 26-102 limits assumed): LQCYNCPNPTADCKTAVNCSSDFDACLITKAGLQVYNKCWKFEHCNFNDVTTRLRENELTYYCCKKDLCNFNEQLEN
# Assay Overview: mRNA-display cyclic peptide screen against CD59-biotin, NGS abundance after 6th selection round
# Reported Conditions: average of Seq I and Seq II, sheet R6
One number for each entry, in %.

Macromolecule Sequence | Target System | Measured Number
FTRGNSTSVLF | biotinylated CD59 (Homo sapiens) | 0.014
CYAAGSASWSRG | biotinylated CD59 (Homo sapiens) | 0.014
ASWLPSPCKFS | biotinylated CD59 (Homo sapiens) | 0.013
CFVSRTQIGSV | biotinylated CD59 (Homo sapiens) | 0.012
IARGDWNHQFF | biotinylated CD59 (Homo sapiens) | 0.010
HVFGNRPFTRG | biotinylated CD59 (Homo sapiens) | 0.014

Record Percentage of the pool, averaged across the two sequencing samples per entry; entries follow.
1. CFSSRTGTTSV
2. SAWGNRQIQCY
3. FIRGNSTSVLC

## Output
1: 0.016; 2: 0.012; 3: 0.010

Sourced from paper PMC12207370
